test: chemical genetic growth profiling, strain panel (AID 1159580);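 further: tested at 20 µM; growth read once vehicle control cultures reached saturation at 30 °C; 1 = growth at the plate median or of vehicle wells; lower values mean less growth of the strain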; details: S. cerevisiae deletion strains, growth OD, locus YLR320W, strain mms22, hits give low values
Screen size: about 5,500 compounds; about 2,000 (36%) were called active. Inconclusive results (about 18%) are left out. The list shows a part of the results.
Entries annotated with measured normalized growth
measurement type: normalized growth

CCCCC/C=C\C/C=C\C/C=C\C/C=C\CCCC(=O)O : 0.884
CCCCC(=O)N(Cc1ccc(-c2ccccc2-c2nn[nH]n2)cc1)[C@H](C(=O)O)C(C)C : 0.993
Cc1cc(O)c2c(c1O)C(=O)c1c(O)cc(C)c(O)c1C2=O : 0.965
CCCc1nc(C(C)(C)O)c(C(=O)OCc2oc(=O)oc2C)n1Cc1ccc(-c2ccccc2-c2nn[nH]n2)cc1 : 1.01
CN1Cc2c(N)cccc2C(c2ccccc2)C1 (configuration not stated) : 0.971
O=C1OC(=O)C2C3CCC(O3)C12 (configuration not stated) : 1
COc1ccc2c(=O)c(CC(=O)O)coc2c1 : 0.972
N#Cc1ccc2c(c1)N(CCCN1CCC(O)CC1)c1ccccc1S2 : 0.959
C[C@H]1C(=O)O[C@@H]2CCN3CC=C(COC(=O)[C@](C)(O)[C@]1(C)O)[C@H]23 : 0.997
OCCN1CCN(CCCN2c3ccccc3Sc3ccc(Cl)cc32)CC1 : 0.964
O=c1[nH]c2ccccc2n1C1CCN(CCCC(c2ccc(F)cc2)c2ccc(F)cc2)CC1 : 0.784
Cn1c([N+](=O)[O-])cnc1COC(N)=O : 0.983
CN1CCN(C(c2ccccc2)c2ccccc2)CC1 : 0.992
O=c1[nH]c2ccccc2n1CCCN1CCC(n2c(=O)[nH]c3cc(Cl)ccc32)CC1 : 1
O=c1n(CCCN2CCN(c3cccc(Cl)c3)CC2)nc2ccccn12 : 0.966
CN1CCN(CCCN2c3ccccc3Sc3ccc(Cl)cc32)CC1 : 0.866
O=C1c2ccccc2-c2cccc3cccc1c23 : 0.714
O=C1c2ccc(O)c(O)c2C(=O)c2c(O)ccc(O)c21 : 0.515
CCOc1nc2cccc(C(=O)OC(C)OC(=O)OC3CCCCC3)c2n1Cc1ccc(-c2ccccc2-c2nn[nH]n2)cc1 (configuration not stated) : 0.999
O=C(O)CCCN1C(=O)c2cccc3cccc(c23)C1=O : 0.986
O=C(/C=C/C(=O)Oc1ccccc1C(=O)O)Oc1ccccc1C(=O)O : 1.01
Fc1ccc(C(c2ccc(F)cc2)N2CCN(C/C=C/c3ccccc3)CC2)cc1 : 0.137

* * *

assay: chemical genetic growth profiling, strain panel (AID 1159580);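 further: tested at 20 µM; growth read once vehicle control cultures reached saturation at 30 °C; 1 = growth at the plate median or of vehicle wells; lower values mean less growth of the strain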; details: S. cerevisiae deletion strains, growth OD, locus YOR184W, strain ser1, hits give low values
The campaign covered roughly 5,500 compounds. About 2,000 (36%) were called active. Roughly 18% stayed inconclusive and do not appear here. Some of the results follow.
measurement type: normalized growth

CC(C(=O)O)c1ccc(N2Cc3ccccc3C2=O)cc1 (configuration not stated) : 0.963 (inactive)
COc1cc2ccc(=O)oc2c(OC)c1OC : 1.04 (inactive)
CC1(C)S[C@@H]2[C@H](NC(=O)COc3ccccc3)C(=O)N2[C@H]1C(=O)O : 1.04 (inactive)
c1ccc2c(c1)[nH]c1cnccc12 : 0.995 (inactive)
COc1cc2c(cc1-c1coc3c4c(c(OC)cc3c1=O)OC(C)(C)C=C4)OCO2 : 0.904 (inactive)
COc1cc2ccc(=O)oc2c(O)c1O : 0.983 (inactive)
C=C(C)c1cc2cc(C(C)=O)c(O)cc2o1 : 0.845 (active)
CC(C)=CCc1c(O)cc2occ(-c3ccc4c(c3)OCO4)c(=O)c2c1O : 1.05 (inactive)
CC(C)=CCOc1c2occc2cc2ccc(=O)oc12 : 0.459 (active)
COc1cc2ccc(=O)oc2c2ccoc12 : 0.994 (inactive)
COc1ccc2c(c1)[nH]c1c(C)nccc12 : 0.953 (inactive)
O=c1ccc2cc(O[C@@H]3O[C@H](CO)[C@@H](O)[C@H](O)[C@H]3O)c(O)cc2o1 : 0.997 (inactive)

* * *

assay: chemical genetic growth profiling, strain panel (AID 1159580);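 further: tested at 20 µM; growth read once vehicle control cultures reached saturation at 30 °C; 1 = growth at the plate median or of vehicle wells; lower values mean less growth of the strain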; details: S. cerevisiae deletion strains, growth OD, locus YIL125W, strain kgd1
The whole screen tested about 5,500 compounds, of which about 2,000 (36%) were called active. Roughly 18% stayed inconclusive and do not appear here. Rule as the data show it: active = normalized growth mostly below about 0.91 (no sharp cut-off); inconclusive = no clear call, values can overlap the other calls; inactive = mostly above about 0.92. The list shows a part of the results.
Outcomes: Yes for active, No for inactive

C[N+]1(C)C2CC[C@H]1CC(OC(=O)C(O)c1ccccc1)C2 (some centres not stated) : No
COc1cc2ccc(=O)oc2c2ccoc12 : No
COc1cc(OC)c(-c2c(OC)cc(OC)cc2OC)c(OC)c1 : No
CC(=O)O[C@@H]1CC2C(C)(C)C(=O)[C@@H]3O[C@@H]3[C@]2(C)C2CC[C@]3(C)C(=CC(=O)O[C@H]3c3ccoc3)[C@@]21C (some centres not stated) : No
COc1c2occc2cc2ccc(=O)oc12 : No
Cn1c(=O)[nH]c(=O)c2[nH]cnc21 : No
COC(=O)C[C@H]1C(C)(C)C(OC(C)=O)[C@]2(O)C=C3C4CC(=O)O[C@@H](c5ccoc5)[C@]4(C)CCC3[C@@]1(C)C2=O (some centres not stated) : No
CC(=O)OC1CCC23C(=O)OC45CCC(C6=CC(=O)OC6)C4(C)CCC2C5CCC3(O)C1 (configuration not stated) : No
Cn1c([N+](=O)[O-])cnc1COC(N)=O : No
COc1cc(O)c(C(=O)O)c(O)c1 : No
O=c1ccc2cc(O[C@@H]3O[C@H](CO)[C@@H](O)[C@H](O)[C@H]3O)c(O)cc2o1 : No
COc1cc2ccc(=O)oc2cc1O : No
CSCCC(NC=O)C(=O)NC(CC(C)C)C(=O)NC(Cc1ccccc1)C(=O)O (configuration not stated) : No
Cn1nnnc1SCC1=C(C(=O)O)N2C(=O)C(NC(=O)C(OC=O)c3ccccc3)C2SC1 (configuration not stated) : No
COc1ccc2[nH]cc(CCNC(C)=O)c2c1 : No
Cc1cc(C)nc(NS(=O)(=O)c2ccc(N)cc2)n1 : No
CN1Cc2c(N)cccc2C(c2ccccc2)C1 (configuration not stated) : No
C[C@]12CCC3c4ccc(O)cc4CCC3C1CC[C@@H]2OC(=O)CCC1CCCC1 (some centres not stated) : No
COc1cc2ccc(=O)oc2c(OC)c1OC : No
CC(=O)Oc1ccc2c(c1)CCC1C2CC[C@@]2(C)C1CC[C@@H]2OC(C)=O (some centres not stated) : No
COc1cc(OC)c2c(c1Cl)OC1(C2=O)C(O)=CC(=O)CC1C (configuration not stated) : No
CC(C)=CCOc1c2occc2cc2ccc(=O)oc12 : Yes

* * *

test: chemical genetic growth profiling, strain panel (AID 1159580);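 further: tested at 20 µM; growth read once vehicle control cultures reached saturation at 30 °C; 1 = growth at the plate median or of vehicle wells; lower values mean less growth of the strain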; conditions: S. cerevisiae deletion strains, growth OD, locus YHR079C, strain IRE1 (second series), hits give low values
Screen size: about 5,500 compounds; about 2,000 (36%) were called active. About 18% were inconclusive and are not listed. The list shows a part of the results.
Entries annotated with measured normalized growth
measurement type: normalized growth

COC(=O)C[C@H]1C(C)(C)C(OC(C)=O)[C@]2(O)C=C3C4CC(=O)O[C@@H](c5ccoc5)[C@]4(C)CCC3[C@@]1(C)C2=O (stereo partly drawn) : 1.02
O=C(O)c1cc2cc(Cl)ccc2[nH]1 : 0.984
O=c1[nH]cnc2nc[nH]c12 : 0.975
O=[N+]([O-])/N=C1/NCCN1Cc1ccc(Cl)cc1 : 0.987
CC(C)(O)CC[C@@H](O)[C@](C)(O)C1CC[C@@]2(O)C3=CC(=O)C4C[C@@H](O)[C@@H](O)C[C@]4(C)C3CC[C@]12C (stereo partly drawn) : 1.02
COc1ccc2[nH]cc(CCNC(C)=O)c2c1 : 1.02
CCCCC(=O)N(Cc1ccc(-c2ccccc2-c2nn[nH]n2)cc1)[C@H](C(=O)O)C(C)C : 0.978
C[N+]1(C)C2CC[C@H]1CC(OC(=O)C(O)c1ccccc1)C2 (stereo partly drawn) : 1.01
C[C@]12CCC3C(CC[C@H]4C[C@@H](O)CC[C@]34C)C1CCC2=O (stereo partly drawn) : 0.94
C[C@]12CCC3C(CC[C@H]4C[C@@H](Cl)CC[C@]34C)C1CCC2=O (stereo partly drawn) : 1.02
COc1cc(O)c(C)c(O)c1 : 1.01
c1coc(CNc2ncnc3nc[nH]c23)c1 : 0.996
COC(=O)C[C@H]1C(C)(C)[C@@H](OC(C)=O)[C@@H]2CC3C4CC(=O)O[C@@H](c5ccoc5)[C@]4(C)CCC3[C@@]1(C)C2=O (stereo partly drawn) : 1.01
CCOc1ccc(Cc2nccc3cc(OCC)c(OCC)cc23)cc1OCC : 0.954
COc1c(O)cc(O)cc1O : 0.997
CCCCCN=C(N)N/N=C\c1c[nH]c2ccc(OC)cc12 : 1.01
COc1cc2ccc(=O)oc2c2ccoc12 : 0.961
CC1=C2[C@](C)(C=CC1=O)C[C@H](O)[C@H]1[C@H](C)C(=O)O[C@]21C : 1.03
Cc1cccc(N(C)C(=S)Oc2ccc3ccccc3c2)c1 : 0.984
COc1cc(O)c(C(C)=O)c(OC)c1 : 1
CN(C)c1nc(N(C)C)nc(N(C)C)n1 : 1.02
COc1c2occc2cc2ccc(=O)oc12 : 0.992
Cc1cc(O)c2c(c1O)C(=O)c1c(O)cc(C)c(O)c1C2=O : 0.985
